Hey, just so you know, these numbers are from ChEMBL document CHEMBL1909046.

Molecular target: Alpha-1B adrenergic receptor (Rattus norvegicus)
Sequence (P15823 whole entry): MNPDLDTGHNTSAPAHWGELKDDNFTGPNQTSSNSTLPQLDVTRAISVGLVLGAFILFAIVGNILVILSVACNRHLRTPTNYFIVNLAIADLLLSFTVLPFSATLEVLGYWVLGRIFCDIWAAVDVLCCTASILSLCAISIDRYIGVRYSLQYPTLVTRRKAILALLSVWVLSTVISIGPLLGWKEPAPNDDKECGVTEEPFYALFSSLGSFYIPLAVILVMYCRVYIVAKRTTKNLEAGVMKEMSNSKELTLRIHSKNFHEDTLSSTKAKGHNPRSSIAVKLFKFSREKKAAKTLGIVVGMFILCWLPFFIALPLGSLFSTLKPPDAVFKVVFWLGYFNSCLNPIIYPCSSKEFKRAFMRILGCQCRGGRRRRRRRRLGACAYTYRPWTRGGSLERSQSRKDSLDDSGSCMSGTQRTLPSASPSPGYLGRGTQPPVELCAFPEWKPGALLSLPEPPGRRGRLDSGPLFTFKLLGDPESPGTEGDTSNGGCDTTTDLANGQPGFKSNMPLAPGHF
Test: DRUGMATRIX: Alpha-1B adrenergic receptor radioligand binding (ligand: prazosin)
Assay type: cell membranes, Wistar, Liver, Membrane
Conditions: Not Active = under 50% inhibition at 10 µM
measure: IC50

CC(NC(C)(C)C)C(=O)c1cccc(Cl)c1 (stereo not given)
Not Active
O=c1[nH]c(=O)n([C@H]2C[C@H](O)[C@@H](CO)O2)cc1I
Not Active
CN(Cc1ccc(C(C)(C)C)cc1)Cc1cccc2ccccc12
Not Active
CCOC(=O)C1=C(COCCN)NC(C)=C(C(=O)OC)C1c1ccccc1Cl (stereo not given)
Not Active
Cc1ccc(-c2cc(C(F)(F)F)nn2-c2ccc(S(N)(=O)=O)cc2)cc1
Not Active
N#CC(C#N)=Cc1ccc(O)c(O)c1
Not Active
CCC(C)n1ncn(-c2ccc(N3CCN(c4ccc(OCC5COC(Cn6cncn6)(c6ccc(Cl)cc6Cl)O5)cc4)CC3)cc2)c1=O (stereo not given)
Not Active
CNCCc1ccccn1
Not Active
Nc1ncn([C@@H]2O[C@H](CO)[C@@H](O)[C@H]2O)c(=O)n1
Not Active
Cc1onc(O)c1CC(N)C(=O)O (racemic) [(R,S)-AMPA]
Not Active

---

Molecular target: Substance-K receptor (Homo sapiens); note: in other assays of this panel Not Active means under 50% inhibition at 10 µM
Sequence (P21452 whole entry): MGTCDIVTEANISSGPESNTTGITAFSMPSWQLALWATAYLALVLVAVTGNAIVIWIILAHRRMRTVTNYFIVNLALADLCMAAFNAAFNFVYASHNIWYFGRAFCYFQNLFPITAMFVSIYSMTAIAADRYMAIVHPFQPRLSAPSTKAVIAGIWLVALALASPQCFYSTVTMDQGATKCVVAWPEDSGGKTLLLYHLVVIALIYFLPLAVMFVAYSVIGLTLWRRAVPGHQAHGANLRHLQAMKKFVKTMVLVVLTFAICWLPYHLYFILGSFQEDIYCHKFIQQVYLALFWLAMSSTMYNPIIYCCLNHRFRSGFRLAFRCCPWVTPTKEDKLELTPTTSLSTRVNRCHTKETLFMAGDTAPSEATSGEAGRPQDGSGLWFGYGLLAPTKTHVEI
Type: cell membranes, CHO, Membrane
Conditions: read-out: Ki
Reported Ki by item:
measure: Ki (µM)

CCCCc1oc2ccccc2c1C(=O)c1cc(I)c(OCCN(CC)CC)c(I)c1
6.44
CC/C(=C(\c1ccccc1)c1ccc(OCCN(C)C)cc1)c1ccccc1
1.22
CC(C)(C)NC(=O)[C@@H]1C[C@@H]2CCCC[C@@H]2CN1C[C@@H](O)[C@H](Cc1ccccc1)NC(=O)[C@H](CC(N)=O)NC(=O)c1ccc2ccccc2n1
2.07
CN(C)CCCN1c2ccccc2Sc2ccc(Cl)cc21
9.07
CC(=O)O[C@@]12CO[C@@H]1C[C@H](O)[C@@]1(C)C(=O)[C@H](O)C3=C(C)[C@@H](OC(=O)[C@H](O)[C@@H](NC(=O)OC(C)(C)C)c4ccccc4)C[C@@](O)([C@@H](OC(=O)c4ccccc4)[C@H]21)C3(C)C.O.O.O
0.521

---

Molecular target: Mitogen-activated protein kinase 3 (Homo sapiens)
Sequence (P27361 whole entry): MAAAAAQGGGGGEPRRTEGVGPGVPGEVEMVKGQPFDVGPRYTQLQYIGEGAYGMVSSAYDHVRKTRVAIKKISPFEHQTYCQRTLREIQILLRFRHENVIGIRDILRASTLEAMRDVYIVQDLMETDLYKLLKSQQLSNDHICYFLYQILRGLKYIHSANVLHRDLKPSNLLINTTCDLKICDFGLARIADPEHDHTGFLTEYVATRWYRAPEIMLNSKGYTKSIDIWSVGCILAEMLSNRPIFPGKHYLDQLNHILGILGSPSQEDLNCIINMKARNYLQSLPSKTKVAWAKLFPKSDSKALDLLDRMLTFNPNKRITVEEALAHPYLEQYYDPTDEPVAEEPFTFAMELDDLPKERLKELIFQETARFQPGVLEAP
Assay: DRUGMATRIX: Protein Serine/Threonine Kinase, ERK1 enzyme inhibition (substrate: Myelin Basic Protein)
Parameters: species or system Escherichia coli
Conditions: Not Active = under 50% inhibition at 10 µM
measure: IC50

CCCC1O[C@@H]2C[C@H]3[C@@H]4CCC5=CC(=O)C=C[C@]5(C)[C@H]4[C@@H](O)C[C@]3(C)[C@]2(C(=O)CO)O1 (stereo partly drawn) [BUDESONIDE]
Not Active
OC(Cn1cncn1)(Cn1cncn1)c1ccc(F)cc1F
Not Active
C[C@H](CS)C(=O)N1CCC[C@H]1C(=O)O
Not Active
NC1=NC(=O)C(c2ccccc2)O1 (stereo not drawn)
Not Active
c1ccc2c(c1)c1cccc3ccc4cccc2c4c31 [BENZO[E]PYRENE]
Not Active
CNCCc1ccccn1
Not Active
CC(C)CN(C[C@@H](O)[C@H](Cc1ccccc1)NC(=O)O[C@H]1CCOC1)S(=O)(=O)c1ccc(N)cc1
Not Active
C[C@]12CC[C@@H]3c4ccc(O)cc4CC[C@H]3[C@@H]1CCC2=O
Not Active
Cc1c(C)c2c(c(C)c1O)CCC(C)(COc1ccc(CC3SC(=O)NC3=O)cc1)O2 (stereo not drawn)
Not Active
CC1Cc2ccccc2N1NC(=O)c1ccc(Cl)c(S(N)(=O)=O)c1 (stereo not drawn) [INDAPAMIDE]
Not Active
CC(C)N1CCN(c2ccc(OCC3COC(Cn4cncn4)(c4ccc(Cl)cc4Cl)O3)cc2)CC1 (stereo not drawn)
Not Active
CC(C)C(Br)C(=O)NC(N)=O (stereo not drawn)
Not Active
Cn1ccnc1S
Not Active
Cc1onc(-c2ccccc2Cl)c1C(=O)N[C@@H]1C(=O)N2[C@@H]1SC(C)(C)[C@@H]2C(=O)O
Not Active
N=C(N)NCCN1CCCCCCC1
Not Active
CNNCc1ccc(C(=O)NC(C)C)cc1
Not Active
CC(C)[C@H]1C(=O)N2CCC[C@H]2[C@]2(O)O[C@](NC(=O)[C@@H]3C=C4c5cccc6[nH]cc(c56)C[C@H]4N(C)C3)(C(C)C)C(=O)N12
Not Active
COc1cc2nc(N3CCN(C(=O)C4COc5ccccc5O4)CC3)nc(N)c2cc1OC (stereo not drawn)
Not Active
